Test system: CFTR-Y122X
Test: CFTR-Y122X assay (dual reporter isogenic Hek293 cell lines, Renilla luminescence readthrough)
Format: cell-based
Details: Homo sapiens, HEK293, 24 h, nonsense mutation suppression; 24 h incubation; tested up to 100 μM
Source text: Activity of compounds of the present invention was examined in recombinant, dual reporter isogenic Hek293 cell lines (“CFTR-Y122X assay”). […] Instead of a tyrosine (Y) in position 122 of the CFTR protein a TGA stop codon interrupts the open reading frame (Y122X) of the corresponding mRNA. This TGA stop codon triplet (followed by the pyrimidine base cytosine) is permissive to aminoglycoside mediated translational readthrough which served as positive control for high throughput screening. […]
One threshold, 6 µM, splits the recorded AC50 values: lower ones are MET, equal or higher ones are NOT MET.

Example entries and their recorded answers appear below.
{"compound": "CC1CCc2c(c(=O)c3c(=O)n(-c4ccccc4)c(C(C)C)nc3n2C)C1 (stereo not drawn)", "label": "NOT MET"}
{"compound": "CC(C)c1nc2c(c(=O)c3c(n2C)CCCC3)c(=O)n1-c1ccccc1", "label": "NOT MET"}
{"compound": "Cn1c2ccsc2c(=O)c2c(=O)n(-c3ccccc3)c(C3CCC3)nc21", "label": "MET"}
{"compound": "Cc1cc2c(s1)c(=O)c1c(=O)n(-c3ccccc3)c(C3CCC3)nc1n2C", "label": "MET"}
{"compound": "CC(C)c1nc2c(c(=O)c3c(n2C)CCC3)c(=O)n1-c1ccccc1", "label": "NOT MET"}
{"compound": "Cc1csc2c1c(=O)c1c(=O)n(-c3ccccc3)c(C3CCC3)nc1n2C", "label": "NOT MET"}
{"compound": "Cc1cc2c(=O)c3c(=O)n(-c4ccccc4)c(C4CCC4)nc3n(CCN)c2s1", "label": "MET"}

API: the following record is the query input.
Record "Cc1csc2c(=O)c3c(=O)n(-c4ccccc4)c(C4CCC4)nc3n(C)c12" : is its AC50 strictly below 6 µM? MET

Origin of the recorded values: patent US9884862B2
